Molecular target: hFXR-LBD (interaction with coactivator SRC-1) (Homo sapiens, UniProt Q96RI1)
Test: Y2H antagonist assay: inhibition of CDCA-induced SRC-1 recruitment to FXR-LBD (α-galactosidase readout)
Sequence (Q96RI1 214-486): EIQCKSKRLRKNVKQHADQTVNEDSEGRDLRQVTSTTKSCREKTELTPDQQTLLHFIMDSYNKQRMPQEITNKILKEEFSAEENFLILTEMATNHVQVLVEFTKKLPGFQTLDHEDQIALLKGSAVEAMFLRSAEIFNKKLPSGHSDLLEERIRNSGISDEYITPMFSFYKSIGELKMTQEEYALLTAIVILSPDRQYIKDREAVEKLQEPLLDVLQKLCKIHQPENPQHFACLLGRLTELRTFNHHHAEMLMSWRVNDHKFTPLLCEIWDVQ
readout name: IC50 (µM)
Entry rule: numbers only, all in µM.

Known results for compounds:
O=C(/C=C/CCc1ccccc1)c1ccc(O)cc1 | 5.46
O=C(CCCCc1ccccc1)c1ccc(O)cc1 | 1.79

GET /values?readout=IC50&item= CC(C)(O)c1ccc2c(c1)C(=O)CC1[C@](C)(C(=O)O)CCC[C@]21C (stereo partly shown)
1.29

GET /values?readout=IC50&item= C/C(=C/C(=O)C[C@@H](C)[C@]1(C)CC[C@@]2(C)C3=CCC4C(C)(C)[C@H](O)CC[C@]4(C)[C@@H]3CC=C21)C(=O)O (stereo partly shown)
13.5

GET /values?readout=IC50&item= `O=C(O)C=Cc1ccc(O)cc1`
14.1

GET /values?readout=IC50&item= `CCOC(=O)c1ccc(O)cc1`
19.3

* * *

Biological target: hFXR-LBD (interaction with coactivator SRC-1) (Homo sapiens)
Construct: human FXRα-LBD (200-473 AA) was sub-cloned into vector pGBKT-7; expressed in transfected cells; host or cells: Saccharomyces cerevisiae strain AH109 (Clontech), co-transformed with pGBKT7-FXR LBD and pGADT7-SRC-1
Assay: Y2H agonist assay: SRC-1 recruitment to FXR-LBD (α-galactosidase readout)
Format: cell-based
Details: GAtreated/GADMSO (DMSO = 1.00), average of triplicate
readout name: Agonistic activation (25 μM)
Lab note: jot down the number only; don't add units.

Known results for molecules:
CC(=O)c1ccc2c(c1)C(=O)CC1[C@](C)(C(=O)O)CCC[C@]21C (stereo partly drawn) [Compound 2b] | 0.90
CCOC(=O)c1ccc(O)cc1 [Compound 3e, Ethylparaben] | 0.93

We now examine a further molecule.
GET /values?readout=Agonistic activation (25 μM)&item= O=C(CC(O)CCc1ccccc1)c1ccc(O)cc1 (stereo not drawn) [Compound 3b, Daphneolon]
0.76

* * *

Target: hFXR-LBD (interaction with coactivator SRC-1) (Homo sapiens, UniProt Q96RI1)
Assay: Y2H antagonist assay: inhibition of CDCA-induced SRC-1 recruitment to FXR-LBD (α-galactosidase readout)
Settings: read-out: Inhibition rate % (25 μM), 25 μM compound plus 10 μM CDCA, 24 h; average of triplicate
readout name: inhibition at 25 µM (%)
Entry rule: numbers only, all in %.

Known results for compounds:
CC(=O)c1ccc2c(c1)C(=O)CC1[C@](C)(C(=O)O)CCC[C@]21C (some centres unmarked) | 10.1
O=C(CC(O)CCc1ccccc1)c1ccc(O)cc1 (centres unmarked) | 41.4

GET /values?readout=inhibition at 25 µM&item= `CCOC(=O)c1ccc(O)cc1`
60.1

GET /values?readout=inhibition at 25 µM&item= `O=C(O)C=Cc1ccc(O)cc1`
52.8

GET /values?readout=inhibition at 25 µM&item= C/C(=C/C(=O)C[C@@H](C)[C@H]1CC[C@@]2(C)C3=CCC4C(C)(C)C(=O)CC[C@]4(C)C3CC[C@]12C)C(=O)O (some centres unmarked)
22.7

GET /values?readout=inhibition at 25 µM&item= C/C(=C\CC[C@@H](C)[C@H]1CC[C@@]2(C)C3=CCC4C(C)(C)C(=O)CC[C@]4(C)C3CC[C@]12C)C(=O)O (some centres unmarked)
12.8
